Reported pIC50 is given for each of the following compounds.
# EXPERIMENTAL_SYSTEM: GPR55 (Homo sapiens, UniProt Q9Y2T6)
# Sequence (Q9Y2T6 whole entry, species assumed): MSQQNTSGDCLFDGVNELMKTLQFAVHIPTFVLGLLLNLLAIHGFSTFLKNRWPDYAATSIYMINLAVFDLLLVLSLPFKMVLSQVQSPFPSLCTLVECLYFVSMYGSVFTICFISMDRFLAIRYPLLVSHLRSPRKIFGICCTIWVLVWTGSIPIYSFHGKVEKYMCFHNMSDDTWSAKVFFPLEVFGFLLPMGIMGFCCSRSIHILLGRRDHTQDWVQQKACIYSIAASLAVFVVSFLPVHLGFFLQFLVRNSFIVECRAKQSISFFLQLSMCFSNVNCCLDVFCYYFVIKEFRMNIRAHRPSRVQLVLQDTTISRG
# EXPERIMENT_SUMMARY: Alphascreen ERK phosphorylation assay, antagonism of ML-186-induced ERK phosphorylation
# SETUP_CONDITIONS: in the presence of EC80 of ML-186 (0.45 µM), HEK 293 GPR55 cells
# Procedure: Unless otherwise stated, five independent experiments were performed for each condition, with each experiment conducted in duplicate. For the calcium assay, change in fluorescence by 10 mM Ca in the presence of drugs was normalised to change in fluorescence caused by 10 mM Ca in the presence of vehicle only to allow for comparison. […]
pIC50: −log10 of the molar value.
PROPERTY: pIC50

> print(dat)
                           substance.smiles  endpoint.value
1  C=C(C)[C@@H]1CCC(C)=C[C@H]1c1c(O)cc(CCC)c(C(=O)O)c1O            5.00
2  CCCc1cc(O)c(C/C=C(\C)CCC=C(C)C)c(O)c1C(=O)O            5.10
